# Target: CK1α (Homo sapiens, UniProt P48729+Q96SW2)
# Construct: CSNK1A1-HiBit KI HEK293(LgBit) Cells; host or cells: HEK293(LgBit) knock-in cells
# Sequence (P48729 whole entry): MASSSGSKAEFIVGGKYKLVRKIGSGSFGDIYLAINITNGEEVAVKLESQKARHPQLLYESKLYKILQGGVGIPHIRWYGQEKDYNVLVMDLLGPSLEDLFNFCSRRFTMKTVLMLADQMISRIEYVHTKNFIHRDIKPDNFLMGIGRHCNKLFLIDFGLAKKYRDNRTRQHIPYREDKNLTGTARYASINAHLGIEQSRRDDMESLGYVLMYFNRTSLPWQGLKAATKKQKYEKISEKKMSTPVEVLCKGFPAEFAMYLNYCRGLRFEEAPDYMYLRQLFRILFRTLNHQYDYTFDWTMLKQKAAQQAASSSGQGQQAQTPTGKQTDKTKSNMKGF
# Sequence (Q96SW2 whole entry): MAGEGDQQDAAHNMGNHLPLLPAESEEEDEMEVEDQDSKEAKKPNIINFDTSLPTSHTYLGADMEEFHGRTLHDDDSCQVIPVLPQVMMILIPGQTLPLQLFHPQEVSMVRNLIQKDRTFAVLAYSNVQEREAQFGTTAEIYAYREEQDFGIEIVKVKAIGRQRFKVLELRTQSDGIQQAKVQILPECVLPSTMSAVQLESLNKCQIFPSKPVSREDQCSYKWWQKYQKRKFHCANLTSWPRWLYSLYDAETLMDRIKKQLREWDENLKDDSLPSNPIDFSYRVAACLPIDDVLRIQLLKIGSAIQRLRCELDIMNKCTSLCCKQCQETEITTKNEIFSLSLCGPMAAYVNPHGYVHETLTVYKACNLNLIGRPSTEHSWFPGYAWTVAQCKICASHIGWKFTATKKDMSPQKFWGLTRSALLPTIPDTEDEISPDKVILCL
# Sequence (Q16531 whole entry partner): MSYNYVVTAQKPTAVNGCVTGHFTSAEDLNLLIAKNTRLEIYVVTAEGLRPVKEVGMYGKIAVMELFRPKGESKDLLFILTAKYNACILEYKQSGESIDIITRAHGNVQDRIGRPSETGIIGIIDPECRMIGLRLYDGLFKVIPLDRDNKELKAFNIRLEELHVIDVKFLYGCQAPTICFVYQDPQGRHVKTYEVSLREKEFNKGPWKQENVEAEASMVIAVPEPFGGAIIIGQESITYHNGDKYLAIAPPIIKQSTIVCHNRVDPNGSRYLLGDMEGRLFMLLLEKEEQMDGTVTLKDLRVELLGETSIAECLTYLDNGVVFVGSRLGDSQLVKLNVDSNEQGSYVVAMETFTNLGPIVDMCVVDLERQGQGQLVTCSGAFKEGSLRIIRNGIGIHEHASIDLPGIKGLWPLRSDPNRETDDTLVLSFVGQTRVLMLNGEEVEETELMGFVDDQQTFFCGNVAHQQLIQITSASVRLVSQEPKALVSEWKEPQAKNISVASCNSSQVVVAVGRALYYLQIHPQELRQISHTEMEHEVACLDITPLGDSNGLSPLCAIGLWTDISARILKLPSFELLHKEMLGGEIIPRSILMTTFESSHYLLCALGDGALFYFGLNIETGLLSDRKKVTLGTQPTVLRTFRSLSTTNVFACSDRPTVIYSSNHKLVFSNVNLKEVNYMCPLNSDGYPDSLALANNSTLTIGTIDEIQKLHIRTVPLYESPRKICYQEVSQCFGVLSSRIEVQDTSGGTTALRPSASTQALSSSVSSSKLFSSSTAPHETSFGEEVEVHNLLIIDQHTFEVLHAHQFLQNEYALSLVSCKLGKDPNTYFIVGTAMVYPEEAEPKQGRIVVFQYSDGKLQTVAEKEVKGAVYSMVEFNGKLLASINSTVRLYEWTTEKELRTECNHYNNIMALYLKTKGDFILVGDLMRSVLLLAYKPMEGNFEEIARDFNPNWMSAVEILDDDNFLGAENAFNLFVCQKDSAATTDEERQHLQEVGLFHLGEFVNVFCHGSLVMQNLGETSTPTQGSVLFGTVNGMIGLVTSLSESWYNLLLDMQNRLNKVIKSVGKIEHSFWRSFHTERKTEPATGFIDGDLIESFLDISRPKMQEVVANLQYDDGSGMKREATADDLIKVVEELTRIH
# Assay Procedure: HiBiT degradation assay, CK1α, Procedure A
# Format: cell-based
# Condition Details: six hours incubation
Property: DC50

Output reported DC50 of the compound O=C1CCC(N2Cc3cc(-c4cnn(C(F)(F)F)c4-c4ccccc4)ccc3C2=O)C(=O)N1 (stereo not drawn) on CK1α (Homo sapiens, UniProt P48729+Q96SW2).
< 25 nM

# lookup: CK1α (Homo sapiens, UniProt P48729+Q96SW2) DC50, key = Cn1cnc(-c2ccc3c(c2)CN(C2CCC(=O)NC2=O)C3=O)c1-c1cccc(C#N)c1 (stereo not drawn)
< 25 nM
